- EXPERIMENT: chemical genetic growth profiling, strain panel (AID 1159580);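 also: tested at 20 µM; growth read once vehicle control cultures reached saturation at 30 °C; lower values mean less growth of the strain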
- CONDITION_NOTES: S. cerevisiae deletion strains, growth OD, locus YIL073C, strain SPO22
In all, about 5,500 compounds went through this assay and about 2,000 (36%) were called active. Roughly 18% stayed inconclusive and do not appear here. Rule as the data show it: active = normalized growth mostly below about 0.91 (no sharp cut-off); inconclusive = no clear call, values can overlap the other calls; inactive = mostly above about 0.92. The list shows a part of the results.
Bench note: report the call from T for active, F for inactive

Completed entries (count: 4):
>  <MOLECULE>
COc1cccc(-c2cc(=O)c3cc(OC)ccc3o2)c1

>  <CLASS_ASSIGNMENT>
F

$$$$
>  <MOLECULE>
COc1ccc(-c2cc(=O)c3cc(OC)ccc3o2)cc1

>  <CLASS_ASSIGNMENT>
F

$$$$
>  <MOLECULE>
NCCc1ccc(O)c(O)c1

>  <CLASS_ASSIGNMENT>
F

$$$$
>  <MOLECULE>
NCCc1ccc(O)cc1

>  <CLASS_ASSIGNMENT>
F

$$$$

Enquiry: Which outcome was assigned to CCCCCCCCCc1ccc(O)cc1 in this test?
Return: T

Enquiry: Which outcome was assigned to CCN(CC)CCNc1ccc(CO)c2sc3ccccc3c(=O)c12 in this test?
Return: F

Enquiry: Which outcome was assigned to CCCCCCc1ccc(O)cc1O in this test?
Return: F

Hello, the source for this data is PubChem BioAssay AID1159580, in case you need it.
